FYI, the data here is from ChEMBL document CHEMBL1201862.

# Tested on: K562
# EXPERIMENT_DESCRIPTION: NCI tumour cell line growth inhibition, 48 h
Active and inactive are the calls of the source. No stated cut-off is given here; in the data, active = GI50 up to about 1.1 µM and inactive = higher.
Outcome codes: active, inactive

{"COMPOUND": "Cc1cc(S(=O)(=O)NC2=NCCCN2)c(S)cc1Cl", "CAT": "inactive"}
{"COMPOUND": "CC(C)=C1C(=O)C[C@]2(C)C/C=C(\\C)CC/C=C(\\C)CC[C@@H]12", "CAT": "inactive"}
{"COMPOUND": "O=C1C(NS(=O)(=O)c2ccccc2)=C(n2cnc3ccccc32)C(=O)c2ccccc21", "CAT": "inactive"}
{"COMPOUND": "CC1(C)CC(=O)c2c(oc3cc(O)c(O)cc23)C1", "CAT": "inactive"}
{"COMPOUND": "CCC1c2[nH]c3ccccc3c2C[C@H]2C(=O)NC(CCC(=O)OC(C)(C)C)C(=O)N12 (some centres undefined)", "CAT": "inactive"}
{"COMPOUND": "Cc1cc(N)c2ccccc2[n+]1CCCCCCCCCC[n+]1c(C)cc(N)c2ccccc21 [DEQUALINIUM CHLORIDE]", "CAT": "active"}
{"COMPOUND": "N#Cc1c(-c2ccc(Cl)cc2)c(C#N)c(=O)n(NS(=O)(=O)c2ccccc2)c1S", "CAT": "inactive"}
{"COMPOUND": "COc1ccc(/N=N/C(=O)NC(Cc2ccccc2)C(=O)O)cc1 (centres undefined)", "CAT": "inactive"}
{"COMPOUND": "N#CCCN(CCC#N)c1ccc(/C=C2\\N=C(c3ccccc3)N(c3ccc(Cl)cc3)C2=O)cc1", "CAT": "inactive"}
